- test_name: Efflux ratio of apparent permeability in MDCK-MDR1 cells
- Format: ADME, cell-based, Canis lupus familiaris
- measurement_parameters: dog
Consider the following molecules and their measured efflux ratio readings.
Note: the reply should be a number with no unit written.

Guide cases for efflux ratio, answers given:
[[record]]
molecule = "Cc1cc(F)ccc1Oc1ncc(C(F)(F)F)cc1C(=O)Nc1cccc([S@](C)(=N)=O)c1"
measured_attribute = "efflux ratio"
endpoint_result = 0.8

[[record]]
molecule = "CS(=N)(=O)c1cccc(NC(=O)c2cc(C(F)(F)F)cnc2Oc2ccc(F)cc2Cl)c1 (stereo not drawn)"
measured_attribute = "efflux ratio"
endpoint_result = 0.8


Q. For the molecule shown here, "COc1cc(F)ccc1Oc1cc(C(F)(F)F)ncc1C(=O)Nc1ccnnc1" , give the reported efflux ratio.
A. 0.7

* * *

- test_name: Volume of distribution at steady state in cynomolgus monkey at 1 mg/kg, iv
- Type: ADME, organism-based, Macaca fascicularis
- measurement_parameters: in vivo, read-out: Vdss
Consider the following molecules and their measured Vd readings.
Value expressed in L/kg; do not type the unit.

[[record]]
molecule = "CS(=N)(=O)c1cccc(NC(=O)c2cc(C(F)(F)F)cnc2Oc2ccc(F)cc2Cl)c1 (configuration not stated)"
measured_attribute = "Vd"
endpoint_result = 2.9


Q. For the molecule shown here, "Cc1cc(F)ccc1Oc1ncc(C(F)(F)F)cc1C(=O)Nc1cccc([S@](C)(=N)=O)c1" , give the reported Vd.
A. 1.9

* * *

- target_under_test: Sodium channel protein type 10 subunit alpha (Homo sapiens)
- test_name: Inhibition of Nav1.8 (unknown origin) over expressed in HEK cells assessed as reduction in deltamethrin-stimulated channel activation by FLIPR assay
- Type: cell-based
- Sequence (Q9Y5Y9 whole entry): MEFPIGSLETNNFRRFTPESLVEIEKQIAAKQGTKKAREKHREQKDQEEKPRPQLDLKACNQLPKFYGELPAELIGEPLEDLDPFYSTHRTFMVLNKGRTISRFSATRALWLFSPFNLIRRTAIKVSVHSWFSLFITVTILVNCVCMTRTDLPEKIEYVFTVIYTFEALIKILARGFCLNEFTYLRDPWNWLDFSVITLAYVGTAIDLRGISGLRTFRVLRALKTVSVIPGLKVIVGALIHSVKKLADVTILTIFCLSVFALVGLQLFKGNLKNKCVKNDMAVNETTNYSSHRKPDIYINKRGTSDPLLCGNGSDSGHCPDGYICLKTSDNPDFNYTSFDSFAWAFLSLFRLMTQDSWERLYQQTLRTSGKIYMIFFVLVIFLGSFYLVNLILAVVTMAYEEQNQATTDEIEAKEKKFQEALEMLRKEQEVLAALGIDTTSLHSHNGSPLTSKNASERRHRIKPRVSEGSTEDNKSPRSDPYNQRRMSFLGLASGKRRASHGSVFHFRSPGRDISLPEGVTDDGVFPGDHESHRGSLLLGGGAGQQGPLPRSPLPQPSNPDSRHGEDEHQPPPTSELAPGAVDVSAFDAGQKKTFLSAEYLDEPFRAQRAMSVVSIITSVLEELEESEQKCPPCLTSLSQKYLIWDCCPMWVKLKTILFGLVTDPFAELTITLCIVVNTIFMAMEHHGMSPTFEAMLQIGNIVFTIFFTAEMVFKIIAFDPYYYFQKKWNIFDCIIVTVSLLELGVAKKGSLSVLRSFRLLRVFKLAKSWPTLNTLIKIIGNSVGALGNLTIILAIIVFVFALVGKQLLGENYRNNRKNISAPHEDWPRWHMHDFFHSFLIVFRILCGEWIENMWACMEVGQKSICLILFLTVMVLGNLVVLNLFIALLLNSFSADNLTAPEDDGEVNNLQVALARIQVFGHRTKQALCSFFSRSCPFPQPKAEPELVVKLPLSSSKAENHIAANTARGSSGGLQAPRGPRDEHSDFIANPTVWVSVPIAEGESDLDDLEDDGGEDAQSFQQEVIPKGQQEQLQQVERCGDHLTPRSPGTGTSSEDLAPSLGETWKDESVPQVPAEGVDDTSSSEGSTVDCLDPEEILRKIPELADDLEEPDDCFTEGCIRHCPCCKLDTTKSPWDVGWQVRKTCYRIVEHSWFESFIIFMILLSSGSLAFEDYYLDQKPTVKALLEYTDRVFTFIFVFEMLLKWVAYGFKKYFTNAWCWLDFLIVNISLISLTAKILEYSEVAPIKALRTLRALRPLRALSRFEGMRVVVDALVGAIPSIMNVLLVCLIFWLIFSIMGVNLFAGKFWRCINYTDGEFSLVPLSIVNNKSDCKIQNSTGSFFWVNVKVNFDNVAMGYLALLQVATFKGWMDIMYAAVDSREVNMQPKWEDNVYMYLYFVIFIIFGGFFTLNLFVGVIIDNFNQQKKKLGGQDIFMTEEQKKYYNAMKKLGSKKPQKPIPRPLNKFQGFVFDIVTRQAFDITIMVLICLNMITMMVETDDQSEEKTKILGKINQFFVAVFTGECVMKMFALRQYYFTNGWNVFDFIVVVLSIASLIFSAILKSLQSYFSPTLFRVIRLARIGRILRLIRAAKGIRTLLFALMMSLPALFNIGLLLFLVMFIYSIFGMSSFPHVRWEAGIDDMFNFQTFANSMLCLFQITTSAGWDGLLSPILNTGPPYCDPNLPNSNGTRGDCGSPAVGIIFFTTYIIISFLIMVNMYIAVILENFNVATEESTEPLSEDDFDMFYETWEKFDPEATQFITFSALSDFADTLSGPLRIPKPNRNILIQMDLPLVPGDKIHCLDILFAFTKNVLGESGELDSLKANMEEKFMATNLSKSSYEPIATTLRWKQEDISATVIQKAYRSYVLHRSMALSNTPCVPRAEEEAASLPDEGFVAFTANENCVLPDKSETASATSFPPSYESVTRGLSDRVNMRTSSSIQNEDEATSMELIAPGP
Binary label based on IC50 with cut-off 90 nM: below gives criterion met, not below gives criterion not met.

Past entries and their recorded results:
[[record]]
molecule = "CS(=O)(=O)c1cccc(NC(=O)c2cc(C(F)(F)F)cnc2Oc2cccnc2)c1"
classification = "criterion not met"

[[record]]
molecule = "COc1cc(F)ccc1Oc1ncc(C(F)(F)F)cc1C(=O)Nc1ccc[n+]([O-])c1"
classification = "criterion not met"

[[record]]
molecule = "CS(=O)(=O)c1cccc(NC(=O)c2cc(C(F)(F)F)cnc2Oc2c(F)cccc2F)c1"
classification = "criterion not met"


Q. Is the reported IC50 for "CS(=O)(=O)c1cccc(NC(=O)c2cc(C(F)(F)F)cnc2Oc2ccccc2)c1" strictly below 90 nM?
A. criterion not met

Q. # repeat for "CS(=O)(=O)c1cccc(NC(=O)c2cc(C(F)(F)F)cnc2Oc2cc(F)cc(F)c2)c1"
A. criterion not met

Q. # repeat for COc1cc(F)ccc1Oc1ncc(C(F)(F)F)cc1C(=O)Nc1cccc(S(C)(=N)=O)c1 (configuration not stated)
A. criterion met

Q. # repeat for "Cc1cc(F)ccc1Oc1ncc(C(F)(F)F)cc1C(=O)Nc1cccc(S(C)(=O)=O)c1"
A. criterion not met

Q. # repeat for "CS(=O)(=O)c1cccc(NC(=O)c2cc(C(F)(F)F)cnc2Oc2ccc(F)cc2)c1"
A. criterion not met

Q. # repeat for "COc1cc(F)ccc1Oc1ncc(C(F)(F)F)cc1C(=O)Nc1ccccn1"
A. criterion not met

Q. # repeat for "CS(=O)(=O)c1cccc(NC(=O)c2cc(C(F)(F)F)cnc2Oc2ccc(F)cc2Cl)c1"
A. criterion not met

Q. # repeat for "COc1cc(F)ccc1Oc1ncc(C(F)(F)F)cc1C(=O)Nc1ccncc1"
A. criterion not met

Q. # repeat for "COc1cc(F)ccc1Oc1ncc(C(F)(F)F)cc1C(=O)Nc1ccncn1"
A. criterion not met

Q. # repeat for CN=S(C)(=O)c1cccc(NC(=O)c2cc(C(F)(F)F)cnc2Oc2ccc(F)cc2OC)c1 (configuration not stated)
A. criterion met

Q. # repeat for "COc1cc(F)ccc1Oc1ncc(C(F)(F)F)cc1C(=O)Nc1cccc(S(C)(=O)=O)c1"
A. criterion met

Q. # repeat for "COc1cc(F)ccc1Oc1nc(C(F)(F)F)ccc1C(=O)Nc1cccc(S(C)(=O)=O)c1"
A. criterion not met

Q. # repeat for "COc1cc(F)ccc1Oc1ncc(C(F)(F)F)cc1C(=O)Nc1cccc(P(C)(C)=O)c1"
A. criterion not met

Q. # repeat for "COc1cc(F)ccc1Oc1ncc(C(F)(F)F)cc1C(=O)Nc1ccnnc1"
A. criterion not met

Q. # repeat for "COc1cc(F)ccc1Oc1ncc(C(F)(F)F)cc1C(=O)Nc1cccnc1"
A. criterion not met

Q. # repeat for "CS(=O)(=O)c1cccc(NC(=O)c2cc(C(F)(F)F)cnc2Oc2ccc(F)cc2F)c1"
A. criterion met

Q. # repeat for "COc1cc(F)ccc1Oc1nc2ccccc2nc1C(=O)Nc1cccc(S(C)(=O)=O)c1"
A. criterion met

Q. # repeat for "CS(=O)(=O)c1cccc(NC(=O)c2cc(C(F)(F)F)cnc2Oc2ccc(OC(F)(F)F)cc2Cl)c1"
A. criterion met

* * *

Consider the following compounds and their measured Vd readings.
- test_name: Volume of distribution at steady state in rat at 1 mg/kg, iv
- Format: ADME, organism-based
- measurement_parameters: in vivo, read-out: Vdss

[[record]]
compound = "CS(=N)(=O)c1cccc(NC(=O)c2cc(C(F)(F)F)cnc2Oc2ccc(F)cc2Cl)c1 (stereo not drawn)"
measured_attribute = "Vd"
endpoint_result = "1.9 L/kg"


Q. For the compound shown here, "COc1cc(F)ccc1Oc1cc(C(F)(F)F)ncc1C(=O)Nc1ccnnc1" , give the reported Vd.
A. 1 L/kg

Q. # repeat for "Cc1cc(F)ccc1Oc1ncc(C(F)(F)F)cc1C(=O)Nc1cccc([S@](C)(=N)=O)c1"
A. 1.8 L/kg

* * *

Consider the following compounds and their measured pIC50 readings.
- target_under_test: Voltage-gated inwardly rectifying potassium channel KCNH2 (Homo sapiens)
- Sequence (Q12809 whole entry): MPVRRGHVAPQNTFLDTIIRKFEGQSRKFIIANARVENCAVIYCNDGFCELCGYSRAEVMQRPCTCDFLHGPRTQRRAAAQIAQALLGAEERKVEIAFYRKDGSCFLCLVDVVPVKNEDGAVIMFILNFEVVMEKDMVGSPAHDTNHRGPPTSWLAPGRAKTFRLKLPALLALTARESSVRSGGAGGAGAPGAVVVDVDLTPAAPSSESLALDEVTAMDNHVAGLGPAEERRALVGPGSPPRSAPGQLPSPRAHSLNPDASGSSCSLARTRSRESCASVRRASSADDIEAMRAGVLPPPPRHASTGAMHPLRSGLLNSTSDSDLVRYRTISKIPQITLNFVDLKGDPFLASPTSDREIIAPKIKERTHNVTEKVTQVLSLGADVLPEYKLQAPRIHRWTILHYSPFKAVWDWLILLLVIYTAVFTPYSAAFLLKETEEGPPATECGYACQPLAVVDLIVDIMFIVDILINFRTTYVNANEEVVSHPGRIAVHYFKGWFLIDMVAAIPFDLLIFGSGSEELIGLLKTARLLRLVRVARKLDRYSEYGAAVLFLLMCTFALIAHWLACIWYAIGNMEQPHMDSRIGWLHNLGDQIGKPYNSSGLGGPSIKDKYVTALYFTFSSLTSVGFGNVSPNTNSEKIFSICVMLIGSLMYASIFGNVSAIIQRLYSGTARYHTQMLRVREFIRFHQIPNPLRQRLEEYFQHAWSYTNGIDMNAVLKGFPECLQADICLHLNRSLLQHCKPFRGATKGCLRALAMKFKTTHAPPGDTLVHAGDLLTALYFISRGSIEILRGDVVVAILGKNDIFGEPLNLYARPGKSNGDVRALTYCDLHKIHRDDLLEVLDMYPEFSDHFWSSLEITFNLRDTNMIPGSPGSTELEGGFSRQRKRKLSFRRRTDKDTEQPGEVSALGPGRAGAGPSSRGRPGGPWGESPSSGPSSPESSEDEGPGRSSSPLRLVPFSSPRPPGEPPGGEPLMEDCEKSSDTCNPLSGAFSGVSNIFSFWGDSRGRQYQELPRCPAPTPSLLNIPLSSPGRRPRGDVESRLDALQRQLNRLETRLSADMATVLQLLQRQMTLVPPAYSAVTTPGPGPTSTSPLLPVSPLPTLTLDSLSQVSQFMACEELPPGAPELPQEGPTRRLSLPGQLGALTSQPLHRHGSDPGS
- test_name: Inhibition of human ERG
- Format: toxicity
pIC50: −log10 of the molar value.

Q. For the compound shown here, "O=C(Nc1ccc[n+]([O-])c1)c1cc(C(F)(F)F)cnc1Oc1ccc(F)cc1Cl" , give the reported pIC50.
A. 4.82

Q. # repeat for CS(=N)(=O)c1cccc(NC(=O)c2cc(C(F)(F)F)cnc2Oc2ccc(F)cc2Cl)c1 (centres undefined)
A. < 4.52

Q. # repeat for "COc1cc(F)ccc1Oc1cc(C(F)(F)F)ncc1C(=O)Nc1ccnnc1"
A. < 4.52

Q. # repeat for "Cc1cc(F)ccc1Oc1ncc(C(F)(F)F)cc1C(=O)Nc1cccc([S@](C)(=N)=O)c1"
A. < 4.52

* * *

- target_under_test: Sodium channel protein type 10 subunit alpha (Homo sapiens, UniProt Q9Y5Y9)
- test_name: Inhibition of Nav1.8 (unknown origin) at 10 uM by Ionflux high-throughput automated patch method
- Sequence (Q9Y5Y9 whole entry, looked up): as the sequence (Q9Y5Y9 whole entry) above
Activity calls are given as the source filed them. The rule behind the calls is not given here.
Just give me one of these, please: active, inactive

Past entries and their recorded results:
[[record]]
chemical_smiles = "CS(=O)(=O)c1cccc(NC(=O)c2cc(C(F)(F)F)cnc2Oc2ccccc2)c1"
classification = "active"

[[record]]
chemical_smiles = "O=C(Nc1ccc[n+]([O-])c1)c1cc(C(F)(F)F)cnc1Oc1ccc(F)cc1Cl"
classification = "active"

[[record]]
chemical_smiles = "COc1cc(F)ccc1Oc1ncc(C(F)(F)F)cc1C(=O)NCCN(C)C"
classification = "inactive"

[[record]]
chemical_smiles = "COc1cc(F)ccc1Oc1ncc(C(F)(F)F)cc1C(=O)Nc1cccnc1"
classification = "active"


Next up:
Q. Identify the outcome logged in this assay for the compound shown: "COc1cc(F)ccc1Oc1nc(C(F)(F)F)ccc1C(=O)Nc1cccc(S(C)(=O)=O)c1"
A. active

* * *

- target_under_test: Sodium channel protein type 10 subunit alpha (Homo sapiens, UniProt Q9Y5Y9)
- test_name: Inhibition of Nav1.8 (unknown origin) at 10 uM by Ionflux high-throughput automated patch method
The source made the active and inactive calls. The calls are words filed in the database; no cut-off is given here.
Just give me one of these, please: active, inactive

[[record]]
compound = "COc1cc(F)ccc1Oc1ncc(C(F)(F)F)cc1C(=O)Nc1ccnnc1"
classification = "active"

[[record]]
compound = "COc1cc(F)ccc1Oc1ncc(C(F)(F)F)cc1C(=O)Nc1ccccn1"
classification = "active"

[[record]]
compound = "COc1cc(F)ccc1Oc1ncc(C(F)(F)F)cc1C(=O)Nc1cccc(P(C)(C)=O)c1"
classification = "active"


Next up:
Q. Identify the outcome logged in this assay for the compound shown: CS(=N)(=O)c1cccc(NC(=O)c2cc(C(F)(F)F)cnc2Oc2ccc(F)cc2Cl)c1 (configuration not stated)
A. active

* * *

- test_name: Oral bioavailability in dog at 10 mg/kg
- Assay type: ADME, organism-based, Canis lupus familiaris
- measurement_parameters: in vivo
measured_attribute: bioavailability
Number plus unit, in that order.

Guide cases for bioavailability, answers given:
[[record]]
compound = "CS(=N)(=O)c1cccc(NC(=O)c2cc(C(F)(F)F)cnc2Oc2ccc(F)cc2Cl)c1 (stereo not drawn)"
endpoint_result = "61%"

[[record]]
compound = "COc1cc(F)ccc1Oc1cc(C(F)(F)F)ncc1C(=O)Nc1ccnnc1"
endpoint_result = "100%"


Pending compound:
Q. For the compound shown here, "Cc1cc(F)ccc1Oc1ncc(C(F)(F)F)cc1C(=O)Nc1cccc([S@](C)(=N)=O)c1" , give the reported bioavailability.
A. 39%
